src = the OPERA property sets (Mansouri et al. 2018)

Quick list: boiling point per entry.
Please respond with the number in °C and leave the unit unwritten.

I have this compound here, O=[N+]([O-])c1cccc(Cl)c1Cl , and I need its recorded boiling point. 258

// next record CCO[Si](C)(C)C 76

// same read-out, input: FC(Br)C(F)(F)F (centres undefined) 8.6

Follow-up entry: CCCCCCCCCN 202

Field entry: COCCO 124

And then CCCCCCCCCCCCCCCCCCC1CCCCC1 , what is it? 409

Ok, now CC(C)[C@@H]1CC[C@@H](C)CC1=O 207

What about this compound? Cc1ccc2c(c1)CCC2 202

----------
parameter: log10 vapour pressure (mmHg)
Note: the reply should be a number with no unit written.

Some solved entries appear below for comparison.
>  <compound>
Clc1cc(Cl)c2cc(Cl)c(Cl)c(Cl)c2c1

>  <parameter>
log10 vapour pressure (mmHg)

>  <observed.result>
-5.68

$$$$
>  <compound>
C=CC(=C)CCC=C(C)C

>  <parameter>
log10 vapour pressure (mmHg)

>  <observed.result>
0.304

$$$$
>  <compound>
C=C/C=C\CC1=C(C)[C@@H](OC(=O)[C@@H]2[C@@H](/C=C(\C)C(=O)OC)C2(C)C)CC1=O

>  <parameter>
log10 vapour pressure (mmHg)

>  <observed.result>
-6.4

$$$$
>  <compound>
Clc1cccc(-c2cccc(Cl)c2)c1

>  <parameter>
log10 vapour pressure (mmHg)

>  <observed.result>
-3.19

$$$$
>  <compound>
CCCCc1c(C)nc(NCC)nc1OS(=O)(=O)N(C)C

>  <parameter>
log10 vapour pressure (mmHg)

>  <observed.result>
-6.12

$$$$

Could you share which log10 vapour pressure (mmHg) value was measured for CC(C)[N+](=O)[O-] ? 1.24

Can you check CCCCCCC[C@H](C)O next? -1.17

Can you check C=C(C)C=O next? 2.19

Next entry: C#CC(C)OC(=O)Nc1cccc(Cl)c1 (stereo not drawn) -4.8

# iterate: CCCOC=O 1.92
